Tested on: NIH 3T3 cells transformed by the T24 activated human H-ras gene
EXPERIMENT DESCRIPTION: Ras-Transformed Cell Phenotype Reversion Assay
Type: cell-based, mouse
REPORTED CONDITIONS: NIH3T3; cell counts after 72 hours proliferation; test concentrations 5, 10, 50, 100 and 500 nM
pIC50: −log10 of the molar value.

{"COMPOUND": "CN1C(=O)NC(c2cccc(Cl)c2)c2cc(C(c3ccc(Cl)cc3)c3cncn3C)ccc21 (racemic)", "TARGET OR TEST SYSTEM": "NIH 3T3 cells transformed by the T24 activated human H-ras gene", "pIC50": "> 6.30"}
